experiment: Solubility in solvent; type: physicochemical; settings: water
MEASURED_PROPERTY: Solubility in water

C/C=C(\C)C(OC(C)=O)C(C)c1cc(OC)c2c(c1O)OC1(C)CCC3OC(C(C)(C)O)CC(O)C3(C)C1C2O (stereo not drawn) [stemphone E1 substance] ... insoluble
C/C=C(\C)C(OC(C)=O)C(C)C1=CC(=O)C2=C(OC3(C)CCC4OC(C(C)(C)O)CC(O)C4(C)C3C2)C1=O (stereo not drawn) [stemphone D substance] ... insoluble
C/C=C(\C)C(OC(C)=O)C(C)C1=CC(=O)C2=C(OC3(C)CCC4OC(C(C)(C)O)CC(O)C4(C)C3C2O)C1(O)CC(C)=O (stereo not drawn) [stemphone F substance] ... insoluble
C/C=C(\C)C(OC(C)=O)C(C)c1cc(O)c2c(c1O)OC1(C)CCC3OC(C(C)(C)O)CC(O)C3(C)C1C2O (stereo not drawn) [stemphone E substance] ... insoluble
C/C=C(\C)C(OC(C)=O)C(C)c1cc(O)c2c(c1O)OC1(C)CCC3OC(C(C)(C)O)CC(O)C3(C)C1=C2 (stereo not drawn) [stemphone E2 substance] ... insoluble

Okay, now this compound:
Any idea what its Solubility in water is? The compound is C/C=C(\C)C(OC(C)=O)C(C)C1=CC(=O)C2=C(OC3(C)CCC4OC(C(C)(C)O)CC(O)C4(C)C3=C2)C1=O (stereo not drawn) [stemphone E3 substance]
insoluble
